# System Name: myoglobin (Homo sapiens)
# Construct: commercial protein with heme
# Sequence (P02144 2-154): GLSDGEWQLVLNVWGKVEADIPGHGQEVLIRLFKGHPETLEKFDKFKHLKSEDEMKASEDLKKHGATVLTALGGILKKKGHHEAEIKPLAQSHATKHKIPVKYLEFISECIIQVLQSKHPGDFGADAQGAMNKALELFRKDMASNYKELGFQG
# Assay Explanation: absorbance of reduced form, protection from air oxidation, one-site fit
Measured Metric: Kd

QUERY: Answer with the recorded Kd for the compound listed here: "CN(C)C(=N)NC(=N)N"
RESULT: 570 µM

---

# System Name: cytochrome c
# Construct: commercial reduced cytochrome c with heme
# Assay Explanation: absorbance of reduced form, protection from air oxidation, one-site fit
# Recorded Conditions: PBS, 2 mM NH4OAc, ambient, 5 days; apparent, for retaining ferrous heme
Measured Metric: Kd (µM)
The answer is to be given in µM; state only the numeric part.

QUERY: Assign Kd to the following record: CN(C)C(=N)NC(=N)N [metformin]
RESULT: 1150
